Numbers sourced from patent US6737383B1.

Test system: pigweed
Assay: Test B pre/postemergence pigweed
Format: in vivo, Amaranthus retroflexus
Conditions: Preemergence, Rate 250 g/ha; scale of 0 to 10 where 0 is no effect and 10 is complete control
compounds and their reported Redroot pigweed plant response rating
Outcome Measure: Redroot pigweed plant response rating

- Compound: "CCOC(=O)C(C)N(C(=O)n1oc(=O)n(C)c1=O)c1ccc(F)cc1 (stereo not shown) [Compound 365]"
  Recorded Number: 0
- Compound: "CC(C)N(C(=O)n1oc(=O)n(C2CC3CCC2C3)c1=O)c1ccccc1 (stereo not shown) [Compound 328]"
  Recorded Number: 0
- Compound: "CC1Cc2cccc(-n3c(=O)on(C(=O)N(c4ccc(F)cc4)C(C)C)c3=O)c2O1 (stereo not shown) [Compound 281]"
  Recorded Number: 0
- Compound: "CC(C)N(C(=O)n1oc(=O)n(CCC2OCCO2)c1=O)c1ccc(F)cc1 [Compound 219]"
  Recorded Number: 9
